Cited source for all entries: the supplement of paper PMC6555819

Test system: PPARg:RXRa IVT, anti-PPARg (NR concentration 270 nM, RXRa partner concentration 90 nM)
Measurement Notes: PBM binding z-score (relative to random genomic background probes); higher = stronger binding; sequences stand for … in GC…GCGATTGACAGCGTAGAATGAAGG
Binned PBM binding z-score; ranges: c1: < 1; c2: ≥ 1 and < 4; c3: ≥ 4

Some entries whose results are on file:
TCGAGTAGGGTACCAATGGGGCATTCAGCTTTCT : c2
TCTCGGAGGACACGAAGGTCAGAGCTTTCCAGAG : c1
TCTTGTAGATCAAGCAGGTTAGGAAAGCCTGAGT : c1
GCAGACAGGTGCAACGCAGGTAACTCAGGGTGGC : c1
ACACGGAGGACAAAGGTCAGAGCTACGCCAGTGA : c2

Okay, next one:
Lab note: which band did ACTATTTGGTCAGCTGAGGTCACACACAATTCGG land in?
c2
